Molecular target: T1, human tissue factor pathway inhibitor (TFPI) (human, UniProt P10646 29-304, limits assumed)
T1 construct: bought; also called hTFPI; human TFPI
T1 sequence (looked up): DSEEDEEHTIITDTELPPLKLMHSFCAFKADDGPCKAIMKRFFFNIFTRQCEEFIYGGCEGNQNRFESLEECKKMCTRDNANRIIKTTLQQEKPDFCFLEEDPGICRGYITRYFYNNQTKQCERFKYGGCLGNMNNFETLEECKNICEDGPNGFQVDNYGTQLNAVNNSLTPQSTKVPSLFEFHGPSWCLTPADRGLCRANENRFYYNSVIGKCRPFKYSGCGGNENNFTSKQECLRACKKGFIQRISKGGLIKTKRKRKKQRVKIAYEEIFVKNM
Assay: competitive ELISA
Measured Endpoint: variant/HC_K99L (ratio)
Numeric answer only, unit ratio assumed.

| Binder | Result Unit | Val |
| --- | --- | --- |
| 2A8 HC R30S+S35D+S55R+K99L/LC Y48F+N51V+D91W (Fab, V domains shown) VH: QVQLVESGGGLVQPGGSLRLSCAASGFTFSSYGMDWVRQAPGKGLEWVSSIRGSRSSTYYADSVKGRFTISRDNSKNTLYLQMNSLRAEDTAVYYCARLYRYWFDYWGQGTLVTVSS VL: DIELTQPPSVSVAPGQTARISCSGDNLRNYYAHWYQQKPGQAPVVVIFYDVNRPSGIPERFSGSNSGNTATLTISGTQAEDEADYYCQSWWDGVPVFGGGTKLTVLG | ratio | 17.9 |
| 2A8 HC S35D+K99L/LC Y48F+D91L+P95V+V96W (Fab, V domains shown) VH: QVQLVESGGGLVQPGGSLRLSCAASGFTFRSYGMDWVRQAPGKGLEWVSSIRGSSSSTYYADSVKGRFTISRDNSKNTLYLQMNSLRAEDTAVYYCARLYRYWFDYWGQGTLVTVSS VL: DIELTQPPSVSVAPGQTARISCSGDNLRNYYAHWYQQKPGQAPVVVIFYDNNRPSGIPERFSGSNSGNTATLTISGTQAEDEADYYCQSWLDGVVWFGGGTKLTVLG | ratio | 10.2 |

// next entry
Task: For 2A8 HC Q1E+S31V+S50A+I51D+S55R+S56G+K99V/LC Y48F+D91L+V96W (Fab, V domains shown) VH: EVQLVESGGGLVQPGGSLRLSCAASGFTFRVYGMSWVRQAPGKGLEWVSADRGSRGSTYYADSVKGRFTISRDNSKNTLYLQMNSLRAEDTAVYYCARVYRYWFDYWGQGTLVTVSS VL: DIELTQPPSVSVAPGQTARISCSGDNLRNYYAHWYQQKPGQAPVVVIFYDNNRPSGIPERFSGSNSGNTATLTISGTQAEDEADYYCQSWLDGVPWFGGGTKLTVLG , what is its reported variant/HC_K99L?
Output: 12.1
